Just for reference, the PolyMetriX glass transition set is where these values come from.

The entries below are paired with their reported glass transition temperature.
// return the numeric value with its unit appended

Recorded glass transition temperature, per entry:
> print(dat)
                                   compound  reported.measurement
1  *Oc1ccc(S(=O)(=O)c2ccc(Oc3ccc(C(c4ccc(*)c([Si](C)(C)C)c4)(C(F)(F)F)C(F)(F)F)cc3[Si](C)(C)C)cc2)cc1 (repeat unit)             168.60 °C
2  *Oc1ccc(-c2ccc(-c3ccc(Oc4ccc(C(=O)c5cccc(C(=O)c6ccc(*)cc6)c5)cc4)cc3)cc2)cc1 (repeat unit)             174.00 °C
3  */C(C#N)=C/c1cc(OCCCCCCCCCCCC)c(/C=C(\C#N)c2cc(OCCCCCCCCCCCC)c(*)cc2OC)cc1OC (repeat unit)             181.00 °C
4  *CC(*)(C)C(=O)OCCCOc1ccc(-c2ccc(C#N)cc2)cc1 (repeat unit)              97.00 °C
5  *c1ccc(Oc2ccc(-c3nc4cc(S(=O)(=O)c5ccc6nc(-c7ccccc7)c(*)nc6c5)ccc4nc3-c3ccccc3)cc2)cc1 (repeat unit)             290.00 °C

Could you share which glass transition temperature value was measured for *CC(*)c1ccc(COCCC(F)(F)C(F)(F)C(F)(F)C(F)(F)C(F)(F)C(F)(F)C(F)(F)C(F)(F)F)cc1 (repeat unit) ? 55.00 °C

What value of glass transition temperature has been reported for the following compound? *Oc1ccc(Oc2ccc(C(=O)c3ccc(NC(=O)c4cccc(C(=O)Nc5ccc(C(=O)c6ccc(*)cc6)cc5)c4)cc3)cc2)cc1 (repeat unit) 198.00 °C

----------
Measured glass transition temperature of individual entries
Report as a plain number; the unit °C is understood.

Some solved entries appear below for comparison.
compound	glass transition temperature (°C)
*c1ccc(-c2cc(C(C)(C)C)c(Oc3ccc(N4C(=O)c5ccc(Oc6ccc7c(c6)C(=O)N(*)C7=O)cc5C4=O)cc3C(F)(F)F)c(C(C)(C)C)c2)cc1 (repeat unit)	353.00
*CCCCCCOC(=O)c1cc(OCCCCCCOc2ccc(/N=N/c3ccc(C#N)cc3)cc2)cc(C(=O)OCCCCCCN2C(=O)c3ccc(Oc4ccc5c(c4)C(=O)N(*)C5=O)cc3C2=O)c1 (repeat unit)	61.00
*CCOCC(=O)O* (repeat unit)	-12.60

Now turn to the next compound.
Look up glass transition temperature: *Nc1cc(NC(=O)Nc2ccc(NC(*)=O)cc2)cc(C(=O)Nc2cccc3c2C(=O)c2ccccc2C3=O)c1 (repeat unit) 190.00

----------
assay metric: glass transition temperature (°C)
The answer is to be given in °C; state only the numeric part.

compound	glass transition temperature (°C)
*CC(*)(C)C(=O)OCCCCCCOc1ccc(OC(=O)c2ccc(OC)cc2)cc1 (repeat unit)	38.00

Field request: glass transition temperature | item: *c1ccc(Oc2ccc(-c3c(-c4ccccc4)c4c(c(-c5ccccc5)c3-c3ccccc3)C(=O)N(c3ccc(N5C(=O)c6c(c(-c7ccccc7)c(-c7ccccc7)c(*)c6-c6ccccc6)C5=O)cc3)C4=O)cc2)cc1 (repeat unit) 371.00

Can you look up the measured glass transition temperature of *O[Si](*)(C)CCCCCCCCCCC(=O)Oc1ccc(C(=O)Oc2ccc(-c3ccc(OCC(C)CC)cc3)cc2)cc1 (repeat unit) for me? 26.70

Give the measured glass transition temperature of *Oc1cccc(NC(=O)CCCCCCCCCCC(=O)Nc2ccc(*)cc2)c1 (repeat unit) . 110.00

# query: glass transition temperature of entry *Oc1ccc(Oc2ccc(C(=O)c3ccc(C(=O)c4ccc(*)cc4)c4ccccc34)cc2)cc1 (repeat unit) 200.03

Param item = *CCCCCCCCCCc1nc2ccc(-c3ccc4nc(*)oc4c3)cc2o1 (repeat unit) ; retrieve measured glass transition temperature. 64.00

Quick one: glass transition temperature of *Oc1ccc(Cc2ccc(OC(=O)OCC3CCC(COC(*)=O)CC3)cc2)cc1 (repeat unit) ? 56.90

Returns the measured glass transition temperature for the input compound. Input: *c1ccc2c(c1)C(=O)N(c1ccc(Cc3ccc(N4C(=O)c5ccc(C(C)(C)CCCCC(*)(C)C)cc5C4=O)cc3)cc1)C2=O (repeat unit) 169.90

Quick one: glass transition temperature for *CCCCCCCCCCCC(c1ccc(O)cc1)C(*)c1ccc(O)cc1C (repeat unit) ? 4.00

----------
assay metric: glass transition temperature (°C)
Your answer is read as °C, so omit the unit and give the number.

Examples with answers:
molecule	endpoint unit	glass transition temperature
*C(=O)Oc1ccc(C2(c3ccc(OC(=O)c4ccc5c(c4)C(=O)N(c4ccc(-c6ccc(N7C(=O)c8ccc(*)cc8C7=O)cc6C)c(C)c4)C5=O)cc3)CCCCCCCCCCC2)cc1 (repeat unit)	°C	204.00
*c1ccc(Cc2ccc(N3C(=O)c4ccc(Oc5ccc6c(c5)C(=O)N(*)C6=O)cc4C3=O)cc2)cc1 (repeat unit)	°C	271.00
*Oc1ccc(NC(=O)c2cccc(C(=O)Nc3ccc(Oc4ccc(C5(c6ccc(*)cc6)C6CC7CC(C6)CC5C7)cc4)cc3)c2)cc1 (repeat unit)	°C	273.00
*CCN(CCOC(=O)c1ccc(C(=O)O*)c(OC)c1)c1ccc(/N=N/c2ccc(/C=C/c3nc4ccc([N+](=O)[O-])cc4n3CC)cc2)cc1 (repeat unit)	°C	173.00
*CC(*)OC(=O)c1nn(C(C)=O)c2ccccc12 (repeat unit)	°C	150.00
*CC(*)C(=O)OCCCCCCn1c2ccccc2c2ccccc21 (repeat unit)	°C	48.00

Turning to the following molecule.
Dear colleague, I am looking for the recorded glass transition temperature of the following molecule: *OC(=O)OCCOCCOCCOC(=O)OC1COC2C(*)COC12 (repeat unit) 17.00

----------
assay metric: glass transition temperature (°C)
Give a bare numeral; the unit °C is implied.

Examples from the recorded data:
compound	reported measurement
*c1ccc(-c2ccc(N3C(=O)c4cc5c(cc4C3=O)C(C(F)(F)F)(C(F)(F)F)c3cc4c(cc3O5)C(=O)N(*)C4=O)cc2OC(F)(F)F)c(OC(F)(F)F)c1 (repeat unit)	375.00
*c1ccc2c(c1)C(=O)N(c1c(F)c(F)c(-c3c(F)c(F)c(N4C(=O)c5ccc(C(*)(C(F)(F)F)C(F)(F)F)cc5C4=O)c(F)c3F)c(F)c1F)C2=O (repeat unit)	374.50

Now for the compound whose glass transition temperature we want.
Value lookup for glass transition temperature; key = *c1ccc2c(c1)C(=O)N(c1ccc(-c3ccc(N4C(=O)c5ccc(C(*)(C(F)(F)F)C(F)(F)F)cc5C4=O)cc3-c3ccc(C)cc3)c(-c3ccc(C)cc3)c1)C2=O (repeat unit) 286.00

----------
A collection of molecules and their measured glass transition temperature
Reply numerically in °C, unit not repeated.

molecule	glass transition temperature, °C
*Nc1cc(NC(=O)c2cc(OCCN(C)c3ccc(S(=O)(=O)C(F)(F)C(F)(F)C(F)(F)C(F)(F)C(F)(F)C(F)(F)C(F)(F)C(F)(F)F)cc3)cc(C(*)=O)c2)cc(C(=O)OCCN(C)c2ccc(C#N)cc2)c1 (repeat unit)	157.00

// returns reported glass transition temperature for input *c1ccc(Oc2cc(C(C)(C)C)ccc2Oc2ccc(-n3c(=O)c4cc5c(=O)n(*)c(=O)c5cc4c3=O)cc2)cc1 (repeat unit) 321.00

----------
// condition not met strictly below 300 °C in glass transition temperature; condition met otherwise

compound	answer label
*CC(*)(CC(=O)OC(C)C)C(=O)OC(C)C (repeat unit)	condition not met
*Oc1ccc(C2(c3ccc(OC(=O)c4ccc(Oc5ccc(C6(c7ccc(Oc8ccc(C(*)=O)cc8)cc7)CCC(C(C)(C)C)CC6)cc5)cc4)cc3)CCCCCCCCCCC2)cc1 (repeat unit)	condition not met
*c1ccc(Oc2ccc(-c3cc(-c4ccccc4)c4cc5c(-c6ccccc6)cc(*)nc5cc4n3)cc2)cc1 (repeat unit)	condition met
*Oc1ccc(NC(=O)c2ccc(C(=O)Nc3ccc(Oc4ccc(C5(c6ccc(*)cc6)C6CC7CC(C6)CC5C7)cc4)cc3)c3ccccc23)cc1 (repeat unit)	condition not met

Is reported glass transition temperature greater than or equal to 300 °C here: *Oc1cccc(Oc2ccc3c(=O)n4c5cc(Oc6ccc7c(c6)nc6c8ccc(*)c9cccc(c(=O)n76)c98)ccc5nc4c4cccc2c34)c1 (repeat unit) condition met

Textbook exercise: given the entry *CCCCCCNC(=O)CC(C)(C)c1ccc(C(C)(C)CC(=O)N*)cc1 (repeat unit) , state whether its glass transition temperature is greater than or equal to 300 °C. condition not met

In plain terms: is recorded glass transition temperature at least 300 °C for *CC(*)(C)C(=O)OCc1cccs1 (repeat unit) ? condition not met

----------
assay metric: glass transition temperature (°C)
Field: numeric (°C). Do not append units.

Solved entries (count: 10):
compound	glass transition temperature / °C
*CC(*)(C)C (repeat unit)	-74
*C(=O)OCCN(CCOC(=O)c1ccc2c(c1)C(=O)N(c1cccc(N3C(=O)c4ccc(*)cc4C3=O)c1)C2=O)c1ccc(/N=N/c2ccc(F)cc2)cc1 (repeat unit)	168.00
*c1cccc(S(=O)(=O)c2cccc(-n3c(=O)c4cc5c(=O)n(*)c(=O)c5cc4c3=O)c2)c1 (repeat unit)	360.00
*CC/C=C(/*)CCCCCCC (repeat unit)	-83.00
*/C=C/C1CC(*)C2CC=CC12 (repeat unit)	53.00
*C(=O)Nc1ccc(C(c2ccc(NC(=O)c3ccc4c(c3)C(=O)N(c3c(C)cc(C)c(N5C(=O)c6ccc(*)cc6C5=O)c3C)C4=O)cc2)(C(F)(F)F)C(F)(F)F)cc1 (repeat unit)	250.00
*CC(*)c1ccc(COC(C)CC)cc1 (repeat unit)	40.00
*CC(CC)C(CC)COC(=O)c1ccc(C(=O)O*)cc1 (repeat unit)	32.00
*CCCCCCOC(=O)Nc1ccc(NC(=O)OCCCCCCOc2ccc(-c3ccc(O*)cc3)cc2)c(C)c1 (repeat unit)	89.00
*Oc1ccc(NC(=O)/C=C/c2ccc(/C=C/C(=O)Nc3ccc(*)cc3)cc2)cc1 (repeat unit)	205.00

Would you mind telling me what glass transition temperature value was observed for *c1ccc(Oc2cccc(Oc3ccc(N4C(=O)c5ccc(-c6ccc7c(c6)C(=O)N(*)C7=O)cc5C4=O)cc3)c2)cc1 (repeat unit) ? 234.00

What value of glass transition temperature has been reported for the following compound? *c1ccc(Oc2cc(C(C)(C)C)ccc2Oc2ccc(N3C(=O)c4ccc(-c5ccc6c(c5)C(=O)N(*)C6=O)cc4C3=O)cc2)cc1 (repeat unit) 257.00

Would you mind telling me what glass transition temperature value was observed for *c1ccc(Oc2ccc(C(c3ccc(Oc4ccc(-n5c(=O)c6cc7c(=O)n(*)c(=O)c7cc6c5=O)cc4)cc3)(C(F)(F)F)C(F)(F)F)cc2)cc1 (repeat unit) ? 302.50

What value of glass transition temperature has been recorded for this entry: *CCCCCCCCCCOC(=O)c1ccc2cc(C(=O)O*)ccc2c1 (repeat unit) 50.50

Given *c1cccc(Cc2cccc(-n3c(=O)c4cc5c(=O)n(*)c(=O)c5cc4c3=O)c2)c1 (repeat unit) , state its recorded glass transition temperature. 327.50

# get_value(readout='glass transition temperature', item= *CC(O)CN(Cc1ccccc1)CC(O)COc1ccc(C(C)(C)c2ccc(O*)cc2)cc1 (repeat unit) ) 94.2
